Hey, just so you know, these numbers are from patent US20240360227A1.

- target.entity: Recombinant human his-tagged IGF R extracellular domain protein (human) (UniProt P08069)
- method: SPR, Ab captured via anti-huIgG Fc, pH 7.4
// kon lookup, one value per entry
The reply should contain only the number, in M⁻¹ s⁻¹.

{"binder": "VRDN-02007 (antibody, V domains shown) VH: QVQLQESGPGLVKPSETLSLTCTVSGYSITGHYLWNWIRQPPGKGLEWIGYISYDGTNNYKPSLKDRVTISRDTSKNQFSLKLSSVTAADTAVYYCARYGRVFFDYWGQGTLVTVSS VL: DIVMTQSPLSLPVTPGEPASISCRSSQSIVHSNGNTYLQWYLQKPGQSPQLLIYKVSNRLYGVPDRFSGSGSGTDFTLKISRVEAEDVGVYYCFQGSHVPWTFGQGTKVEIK", "units.text": "M⁻¹ s⁻¹", "kon": 58000}
{"binder": "VRDN-02062 (antibody, V domains shown) VH: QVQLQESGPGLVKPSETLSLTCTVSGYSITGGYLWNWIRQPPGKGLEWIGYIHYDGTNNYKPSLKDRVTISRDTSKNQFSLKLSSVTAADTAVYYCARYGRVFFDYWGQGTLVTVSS VL: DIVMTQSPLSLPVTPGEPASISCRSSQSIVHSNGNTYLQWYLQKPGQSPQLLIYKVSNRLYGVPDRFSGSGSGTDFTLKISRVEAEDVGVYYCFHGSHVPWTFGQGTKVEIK", "units.text": "M⁻¹ s⁻¹", "kon": 94300}
{"binder": "VRDN-02068 (antibody, V domains shown) VH: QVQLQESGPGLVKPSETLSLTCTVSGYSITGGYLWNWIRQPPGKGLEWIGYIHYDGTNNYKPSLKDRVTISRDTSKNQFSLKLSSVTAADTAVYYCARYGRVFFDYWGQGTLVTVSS VL: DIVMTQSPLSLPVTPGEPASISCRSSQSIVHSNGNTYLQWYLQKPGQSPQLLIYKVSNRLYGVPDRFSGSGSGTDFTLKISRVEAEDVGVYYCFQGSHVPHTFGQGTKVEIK", "units.text": "M⁻¹ s⁻¹", "kon": 115000}

**Query** I am curious: what kon value has been reported for VRDN-02005 (antibody, V domains shown) VH: QVQLQESGPGLVKPSETLSLTCTVSGYSIHGGYLWNWIRQPPGKGLEWIGYISYDGTNNYKPSLKDRVTISRDTSKNQFSLKLSSVTAADTAVYYCARYGRVFFDYWGQGTLVTVSS VL: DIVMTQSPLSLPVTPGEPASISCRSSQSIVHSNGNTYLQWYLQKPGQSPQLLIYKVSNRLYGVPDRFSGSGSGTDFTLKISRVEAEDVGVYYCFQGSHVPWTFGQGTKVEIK ?
**Result** 85800

**Query** I am curious: what kon value has been reported for VRDN-02039 (antibody, V domains shown) VH: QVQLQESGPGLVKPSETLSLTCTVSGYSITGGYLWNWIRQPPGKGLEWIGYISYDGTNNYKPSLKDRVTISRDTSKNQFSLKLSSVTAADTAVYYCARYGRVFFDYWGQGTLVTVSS VL: DIVMTQSPLSLPVTPGEPASISCRSSQSIVHSNGHTYLQWYLQKPGQSPQLLIYKVSNRLYGVPDRFSGSGSGTDFTLKISRVEAEDVGVYYCFQGSHVPWTFGQGTKVEIK ?
**Result** 89800
